protocol: soluble on expression in E. coli; label from the status in PepcDB or PDB records

- sequence.entry: "MGSDKIHHHHHHMEFSPQQDEALQAVARWLQAGKPQLFRLFGYAGTGKTTLARYFAEHVDGQVQFAAFTGKAAQVLRSKGAVNARTIHSLIYRPKGEESVEDEVTGKTSMSPTFSLNRQSPISRAKLVVIDECSMVDEQLGRDLMSFGTPILVLGDPGQLPPISGGGFFTDHEPDFLLTEIHRQARDNPILRLALDVREGREFMRGDYGTAQVIGKEDVTQELVLKADQVLVGTNRTRRRYNQRLRELKGFNADYPQAGDKLVCLRNDPAKGLLNGSLWKVMTSSRETVKPGINLLVSPEEDDPDRGVAKIKLLKAAFEDPDADIPWQQKKRFDDFDYGYALTVHKAQGSQWNEIVLFDESWAFKETRQRWLYTAITRAAERLTIVR"
  soluble on expression in E. coli: "not soluble"
- sequence.entry: "LLLYIHGFNSSPLSMKANLMREYCAQHRPDIKVIVPQLPCFPEQAAQLLLDIVEQYKDDYNIGLVGSSLGGYMSTWLNAKYGFKAVVVNPAVKPYELLVDYLGEQTNPYTRETYTLEACHIDELKALDVQSIASPHSFWLLQQTEDEVLDYRQAVDKFAKAKQTVEQGGDHSFVGFERYPAKIIEFLE"
  soluble on expression in E. coli: "not soluble"

----------
protocol: soluble on expression in E. coli; label from the status in PepcDB or PDB records

- sequence.entry: "MSSRIEQIIEEIEEYIDKDCKFQPLSSTKIIVNKEHLDELLRELRMKTPDEIKRYQKIISNRDAILADAKAKADAMIEEAQVQTTELVSEHEIMQQAYAQANEIVTQATAQAQEIIDNATMDANEIRMGAIQYTDDLLANAESIIGHTLDSYTTKYDGLINSLQECYDVVRTNRAELESPTPEEGQEFSGEA"
  soluble on expression in E. coli: "not soluble"
- sequence.entry: "MKLPYSITVTYDHRTSPHIPFSSHIGKQNSFFSFLSRKKSMYHHITFCSVPATDGRARGQRPTGHFHLFFVVNRLLPRTRSTTKPSCSFAQPVTPRTREGAGVRGHRRRRRGSLSLIPWKTSNDKQKDDKRSLFCYMREIIAVGNFSKYMLLEHHHHHH"
  soluble on expression in E. coli: "not soluble"
- sequence.entry: "MKFTWYGQSCFLIETSRNKKILLDPFNNSIGYPTFKGEADIITVSHHHFDHDFIDCVTNSPKVIDKPGDYKIDDITIKGIPSFHDNVHGAARGENTIFLFNIDGFNVCHLGDIGYVLSDLEVKSLGNVDVLMIPVGGNFTIDGAEAGQLCKKINSNIILPMHYKTTFTILPLEGAEKFIMSMKNAERLQSNVLTLDTKTNEKNQVKIFSIKLEHHHHHH"
  soluble on expression in E. coli: "not soluble"
- sequence.entry: "WAIFVEQSDGHYRVRLRSKSHIINEIAKRHNGGGHPLASGANSYSLEENQAIYQ"
  soluble on expression in E. coli: "soluble"
- sequence.entry: "TDKEEFALYCEAKNDKVRKRLGIKGGFYWTTAKKLSVAISRCITAMDDNDYDEDDFKKPVRVNLPVVDDLPPEGVFDTEFCNRYEKGGKDGITMTFIGPSPSVQDKPASTDNTNINGEAMTEIEESMLLPVSGQELPIRWLAQHGSEKPVTHVSRDELQALHIARAEELPAVTALAISHKTSLLDSL"
  soluble on expression in E. coli: "not soluble"
- sequence.entry: "GSHMTNVTGDYTDCTPLLGDRAALDSFYEEHGYLFLRNVLDRDLVKTVAEQMREGLVALGAADPHATLEELTIDSFESVDEVAMHDYVKYDAFWNNPSTIKVFEQVFGEPVFVFLSTTIRYYPSQAGSEEPSFHYLTPFHQDGFYIGPNQDFRTFWIPLIRTTRESGGVALADGSHRRGKRDHVLNESFRRFGHPVRGIPPTEVSEDEHLLHSPMEPGDILLFHAHMCHKSIPNLSKDPRLMRMSMDTRVQPAKSHRGFNAMTPWTESAKDASKGIMAKITGTPTDVE"
  soluble on expression in E. coli: "soluble"
- sequence.entry: "IIAWLGPQLRELTPVDTNKDPKTRLQEFLQSRGCDLPRYEVVDIQGEPHCRTFFVDCEVALLSDKTHGHGGSRRIAEQVAAAAALVALGVENGHD"
  soluble on expression in E. coli: "not soluble"
- sequence.entry: "LKDTLHNSELDDAERSSSDINNLFHSKPVKDISALDLNASLGNFQEIIIYDEHNNKLFETSNDNTVRVEPGYEHRYFDRVIKKRYKGIEYLIIKEPITTQDFKGYSLLIHSLENYDNIVKS"
  soluble on expression in E. coli: "not soluble"
